- study_system: human recombinant adrenergic α2A receptor (Homo sapiens)
- Construct: expressed in transfected cells; host or cells: insect Sf9 cells
- Sequence (P08913 1-465): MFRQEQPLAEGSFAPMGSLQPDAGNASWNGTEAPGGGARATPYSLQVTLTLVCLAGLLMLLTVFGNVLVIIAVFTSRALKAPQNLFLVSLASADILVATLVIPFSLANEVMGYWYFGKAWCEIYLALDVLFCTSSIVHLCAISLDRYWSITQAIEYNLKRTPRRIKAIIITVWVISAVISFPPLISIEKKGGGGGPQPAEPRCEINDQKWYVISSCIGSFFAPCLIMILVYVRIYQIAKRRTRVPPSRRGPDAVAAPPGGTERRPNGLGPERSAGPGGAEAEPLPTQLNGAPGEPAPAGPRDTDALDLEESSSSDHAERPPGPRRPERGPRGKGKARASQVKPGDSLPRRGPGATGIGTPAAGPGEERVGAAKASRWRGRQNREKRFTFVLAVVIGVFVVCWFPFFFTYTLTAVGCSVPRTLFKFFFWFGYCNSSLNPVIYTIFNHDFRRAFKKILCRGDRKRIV
- assay_overview: Radioligand binding, adrenergic α2A receptor ([3H]MK-912)
- experimental_setup: 0.1 μM compound; Sf9 cells; 1 nM [3H]MK-912; read-out: Percentage inhibition of ligand binding, Adrenergic α2A
observable: inhibition at 0.1 µM (%)

Worked set:
Ask: Return reported inhibition at 0.1 µM. Input compound: `Cc1ccc2c(c1)c1c(n2-c2cccc(-c3sccc3C)c2)CCN(C)C1`
Reply: 31

Ask: Return reported inhibition at 0.1 µM. Input compound: `Cc1ccc2c(c1)c1c(n2-c2ccccc2-c2ccc3c(ccn3C)c2)CCN(C)C1`
Reply: 89

(a) Cc1ccc2c(c1)c1c(n2-c2ccc(-c3ccnn3C)cn2)CCN(C)C1
(b) Cc1cc(C)c2c(c1)c1c(n2-c2cscc2-c2ccncc2)CCN(C)C1
Ask: Between these two entries, a and b , state which has the higher inhibition at 0.1 µM. Lab log: write the label of the selected item as the result.
Reply: a

(1) Cc1ccc2c(c1)c1c(n2-c2cscc2-c2ccc3c(ccn3C)c2)CCN(C)C1
(2) Cc1ccc2c(c1)c1c(n2-c2ccccc2-c2ccc(O)nc2)CCN(C)C1
(3) Cc1ccc2c(c1)c1c(n2-c2ccc(-c3ccc(C)nc3)cn2)CCN(C)C1
(4) Cc1ccc2c(c1)c1c(n2-c2cccs2)CCN(C)C1
(5) Cc1ccc2c(c1)c1c(n2-c2ccc(-c3ccc(F)nc3)cn2)CCN(C)C1
Ask: Could you please order the items by inhibition at 0.1 µM, going from the lowest number to the highest? Provide the labels, sequenced as the question asks.
Reply: 4, 2, 3, 5, 1

====

- study_system: human recombinant adrenergic α2B receptor (Homo sapiens, UniProt P18089)
- Construct: expressed in transfected cells; host or cells: CHO-K1
- Sequence (P18089 whole entry): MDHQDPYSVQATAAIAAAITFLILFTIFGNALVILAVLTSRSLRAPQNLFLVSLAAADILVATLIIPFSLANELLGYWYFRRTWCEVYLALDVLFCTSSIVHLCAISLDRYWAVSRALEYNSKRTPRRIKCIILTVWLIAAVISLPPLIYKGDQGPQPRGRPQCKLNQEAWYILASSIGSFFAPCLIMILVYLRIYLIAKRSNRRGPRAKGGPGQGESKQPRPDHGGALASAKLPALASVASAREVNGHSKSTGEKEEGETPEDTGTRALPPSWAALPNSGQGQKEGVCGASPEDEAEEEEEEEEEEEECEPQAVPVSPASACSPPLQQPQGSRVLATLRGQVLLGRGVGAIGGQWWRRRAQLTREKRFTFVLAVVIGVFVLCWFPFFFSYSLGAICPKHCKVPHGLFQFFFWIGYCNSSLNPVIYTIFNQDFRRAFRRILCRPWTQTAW
- assay_overview: Radioligand binding, adrenergic α2B receptor ([3H]Rauwolscine)
- experimental_setup: 0.1 μM compound, CHO-K1 cells, read-out: Percentage inhibition of ligand binding, Adrenergic α2B
observable: inhibition at 0.1 µM (%)

Worked set:
Ask: Return reported inhibition at 0.1 µM. Input molecule: `Cc1ccc2c(c1)c1c(n2-c2ccccc2-c2cccc3[nH]ncc23)CCN(C)C1`
Reply: 84

Ask: Return reported inhibition at 0.1 µM. Input molecule: `Cc1ccc2c(c1)c1c(n2-c2ccsc2)CCN(C)C1`
Reply: 51

Ask: Return reported inhibition at 0.1 µM. Input molecule: `Cc1ccc2c(c1)c1c(n2-c2cccc(-c3ccc(S(C)(=O)=O)cc3)c2)CCN(C)C1`
Reply: 28

(I) Cc1ccc2c(c1)c1c(n2-c2cccc(-c3cn[nH]c3)c2)CCN(C)C1
(II) Cc1ccc2c(c1)c1c(n2-c2ccc(-c3ccc4c(ccn4C)c3)cn2)CCN(C)C1
Ask: Between these two entries, I and II , state which has the higher inhibition at 0.1 µM. Lab log: write the label of the selected item as the result.
Reply: II
(II: 105%, I: 19%)

(1) Cc1ccc2c(c1)c1c(n2-c2ncccc2-c2ccncc2)CCN(C)C1
(2) Cc1ccc2c(c1)c1c(n2-c2cccc(-c3ccc(S(N)(=O)=O)cc3)c2)CCN(C)C1
(3) Cc1csc(-c2ccc(-n3c4c(c5cc(C)ccc53)CN(C)CC4)nc2)c1
Ask: Could you please order the items by inhibition at 0.1 µM, going from the lowest number to the highest? Provide the labels, sequenced as the question asks.
Reply: 1, 2, 3

Data origin: patent US20140155384A1
